Ref: patent US12590062B2

This section presents compounds with their documented pIC50 values.
biological target: PD-1/PD-L1 (Homo sapiens, UniProt Q9NZQ7); experiment: PD-1/PD-L1 biochemical protein-protein interaction assay (ALPHA); details: 0.3 nM His tagged PD-L1, 2.5 nM biotinylated Fc-PD-1, 60 minutes at 25° C., read-out: IC50 PD-L1-PD-1 Alpha IC50-mono PD-L1-fcP-D1
Sequence (Q9NZQ7 19-238 limits assumed): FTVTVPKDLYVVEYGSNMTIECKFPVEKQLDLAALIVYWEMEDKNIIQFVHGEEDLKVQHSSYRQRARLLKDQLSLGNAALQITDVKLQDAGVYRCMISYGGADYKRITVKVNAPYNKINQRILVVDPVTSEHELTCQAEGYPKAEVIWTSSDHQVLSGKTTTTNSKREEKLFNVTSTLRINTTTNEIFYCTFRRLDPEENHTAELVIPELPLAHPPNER
pIC50: −log10 of the molar value.
Readout Label: pIC50

- COc1nc(-c2cccc(-c3cccc(-c4ccn5cc(CN(C)C)nc5c4)c3Cl)c2Cl)ccc1CN(C)C [Example 617]: 9.77
- COc1nc(-c2cccc(-c3cccc4c3CC[C@@H]4Oc3nc(OC)c(CN4CC(C(=O)O)C4)cc3Cl)c2Cl)ccc1CNC[C@@H]1CCC(=O)N1 [Example 757]: 10.19
- COc1nc(-c2cccc(-c3cccc(-c4ccc5ncc(CNC[C@@H](O)CC(=O)O)n5c4)c3Cl)c2Cl)ccc1CNC[C@@H](O)CC(=O)O [Example 621]: 8.98
- COc1nc(OCc2cccc(-c3cccc(COc4ccc(CN5C[C@@H](O)CC5=O)c(OC)n4)c3C)c2C)ccc1CNC[C@@H](O)CC(=O)O [Example 26]: 7.79
- CC(CO)(NCc1cc(Cl)c(O[C@H]2CCc3c(-c4cccc5c4CC[C@@H]5Oc4nc(OCc5cncc(S(C)(=O)=O)c5)c(CNC(C)(CO)C(=O)O)cc4Cl)cccc32)nc1OCc1cncc(S(C)(=O)=O)c1)C(=O)O (some centres unmarked) [Example 298]: 10.29
- Cc1c(COc2cc(OCc3cncc(C#N)c3)c(CNC[C@@H](O)CC(=O)O)cc2Cl)cccc1-c1cccc(-c2ccc3c(CNC[C@@H](O)CC(=O)O)ccc(Cl)c3c2)c1C [Example 359]: 8.68
- COc1nc(-c2cccc(-c3cccc(-c4ccc5ncc(CN6CC7(CCC(=O)N7)C6)n5c4)c3Cl)c2Cl)ccc1CN1CC2(CCC(=O)N2)C1 [Example 614]: 7.94
- Cc1c(COc2cc(OCc3cncc(C#N)c3)c(CNC[C@@H](O)CC(=O)O)cc2Cl)cccc1-c1cccc(-c2ccc(OCCNC[C@@H](O)CC(=O)O)c(F)c2)c1C [Example 314]: 10.19
- Cc1c(COc2cc(OCc3cncc(C#N)c3)c(CN[C@@](C)(CO)C(=O)O)cc2Cl)cccc1-c1cccc(-c2ccc(OCCc3cccnc3)c(CNCCO)c2)c1C [Example 364]: 9.52
- COc1nc(OCc2cccc(-c3cccc(COc4ccc(CNC[C@@H](C)O)c(OC)n4)c3C)c2C)ccc1CNC[C@@H](C)O [Example 24]: 7.38
- N#Cc1cncc(COc2nc(O[C@H]3CCc4c(-c5cccc(-c6ccc(OCCNCCO)cc6)c5Cl)cccc43)c(Cl)cc2CNC[C@@H](O)CC(=O)O)c1 [Example 291]: 9.76
